system: Nucleic Acid; assay: Induction of Escherichia coli DNA cleavage at 100 ug after 2 hrs by agarose gel electrophoresis; type: nucleic-acid assay
Activity calls are given as the source filed them. The rule behind the calls is not given here.
Possible outcomes: y = active, n = inactive

>>> print(df.to_string())
                                    compound  class_assignment
 0  O=[N+]([O-])c1ccc(C2CC(c3ccc4[nH]c5c(c4c3)CCCC5)=NN2)cc1 (stereo unspecified)                 y
 1  Cc1ccc(C2CC(c3ccc4[nH]c5c(c4c3)CCCC5)=NN2)cc1 (stereo unspecified)                 n
 2  Oc1ccccc1C1CC(c2ccc3[nH]c4c(c3c2)CCCC4)=NN1 (stereo unspecified)                 n
 3  Clc1ccc(C2CC(c3ccc4[nH]c5c(c4c3)CCCC5)=NN2)cc1 (stereo unspecified)                 y
 4  C(=C\C1CC(c2ccc3[nH]c4c(c3c2)CCCC4)=NN1)/c1ccccc1 (stereo unspecified)                 n
 5  Clc1cccc(C2CC(c3ccc4[nH]c5c(c4c3)CCCC5)=NN2)c1 (stereo unspecified)                 n
 6  COc1ccc(C2CC(c3ccc4[nH]c5c(c4c3)CCCC5)=NN2)cc1 (stereo unspecified)                 n
 7  c1ccc(C2CC(c3ccc4[nH]c5c(c4c3)CCCC5)=NN2)cc1 (stereo unspecified)                 n
 8  CC1CC(c2ccc3[nH]c4c(c3c2)CCCC4)=NN1 (stereo unspecified)                 n
 9  Clc1ccccc1C1CC(c2ccc3[nH]c4c(c3c2)CCCC4)=NN1 (stereo unspecified)                 n
10  Oc1ccc(C2CC(c3ccc4[nH]c5c(c4c3)CCCC5)=NN2)cc1 (stereo unspecified)                 n

###

test system: A549; assay: Anticancer activity against human A549 cells assessed as cell growth at 80 ug/mL by sulforhodamine B assay; type: functional; settings: read-out: Activity
Examples of compounds with documented growth at 80 µg/mL follow.
observation-type: growth at 80 µg/mL (%)

                                   compound    observation_type  test_result
0  Oc1ccccc1C1CC(c2ccc3[nH]c4c(c3c2)CCCC4)=NN1 (stereo not given)  growth at 80 µg/mL        -28.4
1  C(=C\C1CC(c2ccc3[nH]c4c(c3c2)CCCC4)=NN1)/c1ccccc1 (stereo not given)  growth at 80 µg/mL         48.7
2  COc1ccc(C2CC(c3ccc4[nH]c5c(c4c3)CCCC5)=NN2)cc1 (stereo not given)  growth at 80 µg/mL         15.3
3  Cc1ccc(C2CC(c3ccc4[nH]c5c(c4c3)CCCC5)=NN2)cc1 (stereo not given)  growth at 80 µg/mL        -28.4
4  O=[N+]([O-])c1ccc(C2CC(c3ccc4[nH]c5c(c4c3)CCCC5)=NN2)cc1 (stereo not given)  growth at 80 µg/mL          4.2

###

test system: A549; experiment: Anticancer activity against human A549 cells assessed as cell growth at 80 ug/mL by sulforhodamine B assay; format: functional; settings: read-out: Activity
Examples of compounds with documented growth at 80 µg/mL follow.
observation-type: growth at 80 µg/mL

>>> print(df.to_string())
                                   compound  test_result
0  Clc1ccc(C2CC(c3ccc4[nH]c5c(c4c3)CCCC5)=NN2)cc1 (configuration not stated)        11.5%
1  COc1cccc2c1C(=O)c1c(O)c3c(c(O)c1C2=O)C[C@@](O)(C(=O)CO)C[C@@H]3O[C@H]1C[C@H](N)[C@H](O)[C@H](C)O1       -66.9%
2  c1ccc(C2CC(c3ccc4[nH]c5c(c4c3)CCCC5)=NN2)cc1 (configuration not stated)        48.7%
3  CC1CC(c2ccc3[nH]c4c(c3c2)CCCC4)=NN1 (configuration not stated)        12.1%
4  Clc1ccccc1C1CC(c2ccc3[nH]c4c(c3c2)CCCC4)=NN1 (configuration not stated)        12.1%
5  Oc1ccc(C2CC(c3ccc4[nH]c5c(c4c3)CCCC5)=NN2)cc1 (configuration not stated)        11.5%
6  Clc1cccc(C2CC(c3ccc4[nH]c5c(c4c3)CCCC5)=NN2)c1 (configuration not stated)        15.3%
